# System: panel of breast cancer cell lines
# PROTOCOL DESCRIPTION: Compound A with targeted agents and chemotherapies, 72-hour in vitro proliferation assays
# Assay type: cell-based
# SETTINGS: HCC1143; compound A × partner, 72-hour proliferation
Structures can show the parent of a compound that is named as a salt.
HSA volume strictly under -2 means MET; at -2 or over means NOT MET.

COMPOUND: CCOc1cc2ncc(C#N)c(Nc3ccc(OCc4ccccn4)c(Cl)c3)c2cc1NC(=O)/C=C/CN(C)C [Neratinib]
ASSIGNED CATEGORY: NOT MET
//
COMPOUND: O=C(c1cc(Cc2n[nH]c(=O)c3ccccc23)ccc1F)N1CCN(C(=O)C2CC2)CC1 [Olaparib]
ASSIGNED CATEGORY: NOT MET
//
COMPOUND: CC(=O)c1c(C)c2cnc(Nc3ccc(N4CCNCC4)cn3)nc2n(C2CCCC2)c1=O [PD-0332991]
ASSIGNED CATEGORY: MET
//
COMPOUND: CO[C@H]1C[C@@H]2CC[C@@H](C)[C@@](O)(O2)C(=O)C(=O)N2CCCC[C@H]2C(=O)O[C@H]([C@H](C)C[C@@H]2CC[C@@H](OCCO)[C@H](OC)C2)CC(=O)[C@H](C)/C=C(\C)[C@@H](O)[C@@H](OC)C(=O)[C@H](C)C[C@H](C)/C=C/C=C/C=C/1C [Everolimus]
ASSIGNED CATEGORY: NOT MET
//
COMPOUND: C[C@]12CC[C@@H]3c4ccc(O)cc4C[C@@H](CCCCCCCCC[S+]([O-])CCCC(F)(F)C(F)(F)F)[C@H]3[C@@H]1CC[C@@H]2O (some centres unmarked) [Fulvestrant]
ASSIGNED CATEGORY: MET
//
COMPOUND: CN(C)C(=O)c1cc2cnc(Nc3ccc(N4CCNCC4)cn3)nc2n1C1CCCC1 [LEE011]
ASSIGNED CATEGORY: MET
//
COMPOUND: Nc1ccn([C@@H]2O[C@H](CO)[C@@H](O)C2(F)F)c(=O)n1 [Gemcitabine Hydrochloride]
ASSIGNED CATEGORY: NOT MET
